Each recorded value in this set is attributed to patent US20050048071A1.

- testTarget: HLA-A2.1 MHC class I molecules on T2 cells (human)
- test: T2 cells pulsed with peptide, anti-HLA-A2.1 flow cytometry; Brefeldin A treatment: 0 hr
endpointLabel: binding score (HLA-A2.1 fluorescence on T2 cells)
Respond numerically, and do not add a unit to the figure.

Sample answers from the record:
LKMESLNFI (Synthetic nonamer) [CD20 peptide LKMESLNFI (SEQ ID NO: 10)] :: 245
RLLFFLLFL (Synthetic nonamer) [CD19 peptide RLLFFLLFL (SEQ ID NO: 1)] :: 167
FIRAHTPYI (Synthetic nonamer) [CD20 peptide FIRAHTPYI (SEQ ID NO: 8)] :: 232
SLNFIRAHT (Synthetic nonamer) [CD20 peptide SLNFIRAHT (SEQ ID NO: 9)] :: 212

As a next step, examine the binder that follows.
input: Need binding score (HLA-A2.1 fluorescence on T2 cells), item LLFLTPMEV (Synthetic nonamer) [CD19 peptide LLFLTPMEV (SEQ ID NO: 3)]
output: 770
